# measurement_description: NCI Yeast Anticancer Drug Screen. Data for the sgs1 mgt1 strain (AID 161);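 further: 0% = growth of cultures given vehicle only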
# condition_notes: S. cerevisiae sgs1 mgt1 strain, at 50.0 µM, active compounds read high
This is part of a sample that, as a whole, favours compounds with a hit. Of some 79,000 tested, about 15% had one in any assay.
Reported growth inhibition by item:
Just the number in %, nothing appended.

[
  {
    "compound": "O=C1NC(CCl)(CCl)CO1",
    "property_measured": "growth inhibition",
    "measured_value": -1.7
  },
  {
    "compound": "O=C(c1ccc(Cl)cc1)N(C(=S)N1CCN(c2ccccn2)CC1)C1CCCCC1",
    "property_measured": "growth inhibition",
    "measured_value": 15.3
  },
  {
    "compound": "O=C1NC(=S)N/C1=C\\c1ccco1",
    "property_measured": "growth inhibition",
    "measured_value": 0.5
  },
  {
    "compound": "CCOc1ccc(NC(=O)CCCCCCCCC(=O)Nc2ccc(OCC)cc2)cc1",
    "property_measured": "growth inhibition",
    "measured_value": -11.8
  },
  {
    "compound": "Clc1ccc(/C=C2/c3ccccc3-c3nc4ccccc4cc32)cc1",
    "property_measured": "growth inhibition",
    "measured_value": 23.8
  }
]

Prompt: Quick one: give measured growth inhibition for `O=C(CN1CCCc2ccccc21)c1ccc(Cl)cc1`
Response: 2.55

Prompt: Quick one: give measured growth inhibition for `CCCCCCCCCCCCCCCC(=O)N(CCCC)CCCC`
Response: -4.05

Prompt: Quick one: give measured growth inhibition for `COc1ccc(Nc2nc3cc(C(F)(F)F)ccc3nc2-c2ccccc2)cc1OC`
Response: -48.2
